Tested on: Human tumour cells (cell line panel)
Test: Proliferation assay: cell line panel (crystal violet, 4 days)
Assay type: cell-based
Details: NCI-H2009, lung cancer, non-small cell, 5000 cells/well, read-out: Result Category, IC50 (mean)
assay-readout: IC50

Read off the recorded IC50 for "Brc1cnn2c(NCc3nc4ccccc4[nH]3)nc(N3CCOCC3)nc12"
30 to 100 nM

* * *

Test system: CAL-120, human breast adenocarcinoma cells
Assay: Proliferation assay CAL-120 (crystal violet, 4 days)
Assay type: cell-based
Conditions: Homo sapiens, CAL-120, 96 h, CAL-120 cells, median, read-out: Prolif-CAL-120, IC50-[mol/l] (median)
assay-readout: IC50 (nM)
// return numeric value only (unit: nM, not printed)

Read off the recorded IC50 for "Cc1cnn2c(NCc3nc4c(F)c(F)ccc4[nH]3)nc(N3CCOCC3)nc12"
4.73

Read off the recorded IC50 for "Brc1cnn2c(NCc3nc4ccccc4[nH]3)nc(N3C[C@@H]4CCCN[C@@H]4C3)nc12"
31

Read off the recorded IC50 for "Brc1cnn2c(NCc3ncc(-c4cccnc4)[nH]3)nc(N3CCOCC3)nc12"
107

Now turn to the next compound.
Read off the recorded IC50 for "COc1ccccc1-c1cnc(CNc2nc(N3CCOCC3)nc3c(Br)cnn23)[nH]1"
6.58

* * *

Target: CDK12/CycK (Homo sapiens, UniProt Q9NYV4)
Sequence (Q9NYV4 with tags, fused parts or gaps): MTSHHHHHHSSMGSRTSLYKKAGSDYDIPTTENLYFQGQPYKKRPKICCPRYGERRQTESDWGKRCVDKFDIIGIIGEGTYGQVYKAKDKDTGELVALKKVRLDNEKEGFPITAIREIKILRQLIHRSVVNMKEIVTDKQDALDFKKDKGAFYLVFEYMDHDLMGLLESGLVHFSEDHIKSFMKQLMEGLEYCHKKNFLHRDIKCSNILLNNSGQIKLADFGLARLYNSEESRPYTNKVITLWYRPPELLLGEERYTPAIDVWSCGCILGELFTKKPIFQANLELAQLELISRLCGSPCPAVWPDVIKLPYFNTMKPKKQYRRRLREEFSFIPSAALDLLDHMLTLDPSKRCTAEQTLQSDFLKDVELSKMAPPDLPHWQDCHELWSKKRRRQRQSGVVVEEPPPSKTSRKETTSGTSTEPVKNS
Sequence (O75909 1-300 partner limits assumed): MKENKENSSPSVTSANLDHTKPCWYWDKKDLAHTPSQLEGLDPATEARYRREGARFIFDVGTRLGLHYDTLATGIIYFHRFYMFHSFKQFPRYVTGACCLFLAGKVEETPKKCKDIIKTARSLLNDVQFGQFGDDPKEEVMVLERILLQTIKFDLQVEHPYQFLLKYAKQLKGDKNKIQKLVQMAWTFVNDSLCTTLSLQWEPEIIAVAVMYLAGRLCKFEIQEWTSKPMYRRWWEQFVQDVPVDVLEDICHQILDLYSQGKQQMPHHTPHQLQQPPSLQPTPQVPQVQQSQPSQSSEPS
Experiment: CDK12/CycK high ATP kinase assay (TR-FRET, 2 mM ATP)
Details: 2 mM ATP (high ATP); median; read-out: CDK12/CyclinK, 2 mM ATP (high ATP), IC50-[mol/l] (median)
# IC50 listing for each entry below
// return numeric value only (unit: µM, not printed)

Read off the recorded IC50 for "C[C@@H]1CN(c2nc(NCc3nc4cc(F)ccc4[nH]3)n3ncc(Br)c3n2)C[C@H](C)O1"
0.405

***
Read off the recorded IC50 for "CN1CCN(c2nc(NCc3nnc(-c4cccc(F)c4)[nH]3)n3ncc(Br)c3n2)CC1"
4.12

Read off the recorded IC50 for "CC(C)c1cnn2c(NCc3nnc(-c4ccccc4)[nH]3)nc(N3CCOCC3)nc12"
5.23

Read off the recorded IC50 for "Fc1cccc2[nH]c(CNc3nc(N4CCOCC4)nc4c(CC(F)(F)F)cnn34)nc12"
1.71

* * *

# (IC50 CDK12 high ATP) to (Degradation DC50 CDK12) ratio listing for each entry below
Biological target: CDK12 (nuclear staining in CAL-120 cells) (Homo sapiens, UniProt Q9NYV4)
Construct: endogenous in cells; host or cells: CAL-120 human breast cancer cells (DSMZ ACC 459)
Sequence (Q9NYV4 whole entry): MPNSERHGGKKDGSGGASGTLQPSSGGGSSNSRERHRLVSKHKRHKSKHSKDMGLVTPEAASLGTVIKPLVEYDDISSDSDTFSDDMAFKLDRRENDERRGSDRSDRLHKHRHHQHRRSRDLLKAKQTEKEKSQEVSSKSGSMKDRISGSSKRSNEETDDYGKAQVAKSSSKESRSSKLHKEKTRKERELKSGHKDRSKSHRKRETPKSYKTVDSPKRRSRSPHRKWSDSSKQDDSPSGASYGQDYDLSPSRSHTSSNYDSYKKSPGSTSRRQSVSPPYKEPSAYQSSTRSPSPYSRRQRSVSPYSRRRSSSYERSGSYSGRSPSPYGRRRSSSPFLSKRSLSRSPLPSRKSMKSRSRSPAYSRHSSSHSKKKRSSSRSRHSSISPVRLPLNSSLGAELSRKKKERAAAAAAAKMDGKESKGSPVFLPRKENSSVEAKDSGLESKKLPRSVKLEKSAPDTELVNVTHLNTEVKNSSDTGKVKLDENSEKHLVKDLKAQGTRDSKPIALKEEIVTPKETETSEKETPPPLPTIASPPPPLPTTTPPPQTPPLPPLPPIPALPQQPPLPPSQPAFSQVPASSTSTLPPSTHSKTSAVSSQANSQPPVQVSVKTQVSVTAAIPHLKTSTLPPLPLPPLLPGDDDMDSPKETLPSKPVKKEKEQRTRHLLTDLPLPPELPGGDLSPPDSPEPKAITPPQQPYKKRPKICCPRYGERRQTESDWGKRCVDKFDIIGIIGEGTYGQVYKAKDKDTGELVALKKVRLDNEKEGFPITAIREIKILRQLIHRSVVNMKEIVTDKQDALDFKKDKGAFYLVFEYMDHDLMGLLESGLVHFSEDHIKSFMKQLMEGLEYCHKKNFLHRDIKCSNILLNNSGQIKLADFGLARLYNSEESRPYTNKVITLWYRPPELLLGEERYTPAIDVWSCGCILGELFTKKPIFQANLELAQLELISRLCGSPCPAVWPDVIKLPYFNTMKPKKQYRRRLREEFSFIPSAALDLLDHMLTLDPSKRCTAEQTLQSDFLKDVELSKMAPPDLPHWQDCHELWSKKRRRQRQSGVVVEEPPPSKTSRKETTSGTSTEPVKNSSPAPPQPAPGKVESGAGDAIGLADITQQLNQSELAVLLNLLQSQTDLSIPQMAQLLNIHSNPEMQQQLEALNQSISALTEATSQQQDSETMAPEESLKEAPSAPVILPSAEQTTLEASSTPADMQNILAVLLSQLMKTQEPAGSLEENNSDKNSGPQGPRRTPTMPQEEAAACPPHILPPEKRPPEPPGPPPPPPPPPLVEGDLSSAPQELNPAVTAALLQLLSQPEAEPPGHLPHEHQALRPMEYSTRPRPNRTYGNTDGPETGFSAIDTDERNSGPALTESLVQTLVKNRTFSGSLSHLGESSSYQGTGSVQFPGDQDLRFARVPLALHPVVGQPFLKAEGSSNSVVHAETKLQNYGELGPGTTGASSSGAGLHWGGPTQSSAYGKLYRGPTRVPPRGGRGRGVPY
Sequence (O75909 whole entry partner): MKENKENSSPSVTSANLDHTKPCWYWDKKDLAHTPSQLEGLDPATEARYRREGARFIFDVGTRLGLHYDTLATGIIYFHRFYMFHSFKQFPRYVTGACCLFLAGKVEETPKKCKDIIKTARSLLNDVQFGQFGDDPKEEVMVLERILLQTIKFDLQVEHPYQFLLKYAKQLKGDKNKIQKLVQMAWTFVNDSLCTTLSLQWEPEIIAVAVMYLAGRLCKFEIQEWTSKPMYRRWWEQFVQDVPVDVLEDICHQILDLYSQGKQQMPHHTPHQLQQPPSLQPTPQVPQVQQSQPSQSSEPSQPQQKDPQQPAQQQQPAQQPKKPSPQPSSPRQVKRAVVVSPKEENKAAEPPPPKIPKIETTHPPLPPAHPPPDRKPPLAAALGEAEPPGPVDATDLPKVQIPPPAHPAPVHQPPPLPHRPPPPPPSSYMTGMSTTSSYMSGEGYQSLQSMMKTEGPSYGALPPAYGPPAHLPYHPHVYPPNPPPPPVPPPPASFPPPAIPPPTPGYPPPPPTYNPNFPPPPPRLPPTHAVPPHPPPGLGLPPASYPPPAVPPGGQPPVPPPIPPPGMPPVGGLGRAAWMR
Test: CDK12 nuclear protein level: immunofluorescence/high content analysis (CAL-120)
Assay type: cell-based
Conditions: ratio of IC50 CDK12 high ATP kinase assay to DC50 CDK12 degradation (IF, CAL-120)
Procedure: In the context of the present invention, the term “DC50 CDK12” refers to the DC50 values obtained according to the assay described in this section (7) herein below, i.e. the DC50 values for the degradation of CDK12. Plates are then incubated for 24 h at 37° C. in an humidified incubator and fixed with 4% PFA for 10 min. […] Nuclear and cytoplasmic intensity as well as the nuclear/cytoplasmic intensity ratio is determined by automated image analysis using custom generated scripts (MetaXpress). […]

Examples from the recorded data:
Read off the recorded (IC50 CDK12 high ATP) to (Degradation DC50 CDK12) ratio for Fc1cc2nc(CNc3nc(N4CCOCC4)nc4c(Br)cnn34)[nH]c2cc1F [Example 341]
624

Read off the recorded (IC50 CDK12 high ATP) to (Degradation DC50 CDK12) ratio for Cc1cnn2c(NCc3nc4ccccc4[nH]3)nc(N3CCN(C)CC3)nc12 [Example 396]
>1031

Read off the recorded (IC50 CDK12 high ATP) to (Degradation DC50 CDK12) ratio for FC(F)(F)c1cccc(-c2cnc(CNc3nc(N4CCOCC4)nc4c(Br)cnn34)[nH]2)c1 [Example 83]
111

Read off the recorded (IC50 CDK12 high ATP) to (Degradation DC50 CDK12) ratio for CN1CC2CCC1CN2c1nc(NCc2nc3ccccc3[nH]2)n2ncc(Br)c2n1 (centres unmarked) [Example 221]
1704

Read off the recorded (IC50 CDK12 high ATP) to (Degradation DC50 CDK12) ratio for Cc1cc2nc(CNc3nc(N4CC5CCC(C4)N5)nc4c(Br)cnn34)[nH]c2cc1C [Example 353]
203

***
Read off the recorded (IC50 CDK12 high ATP) to (Degradation DC50 CDK12) ratio for Brc1cnn2c(NCc3nc4ccccc4[nH]3)nc(OC3CCCCC3)nc12 [Example 406]
>160

Read off the recorded (IC50 CDK12 high ATP) to (Degradation DC50 CDK12) ratio for CN1CCN(c2nc(NCc3nc4cc(Cl)c(Cl)cc4[nH]3)n3ncc(-c4cnn(C)c4)c3n2)CC1 [Example 420]
>248

Read off the recorded (IC50 CDK12 high ATP) to (Degradation DC50 CDK12) ratio for FC(F)(F)Cc1cnn2c(NCc3nc4cc(Cl)ccc4[nH]3)nc(N3CCOCC3)nc12 [Example 299]
822

Values compiled from patent US20230117034A1.
